Target: EGFR (human)
Conditions: mda-mb-231

- Compound structure: "C/C(O)=C(\\C#N)C(=O)Nc1ccc(Br)cc1"
  IC50: "> 300 µM"
- Compound structure: "C/C(O)=C(\\C#N)C(=O)Nc1cccc(Br)c1"
  IC50: "> 300 µM"
- Compound structure: "C/C(O)=C(\\C#N)C(=O)Nc1ccc(Cl)cc1"
  IC50: "> 300 µM"
- Compound structure: "C/C(O)=C(\\C#N)C(=O)Nc1cccc(C(F)(F)F)c1"
  IC50: "> 300 µM"
- Compound structure: "C/C(O)=C(\\C#N)C(=O)Nc1ccccc1Br"
  IC50: "> 300 µM"
- Compound structure: "C/C(O)=C(\\C#N)C(=O)Nc1ccccc1"
  IC50: "> 300 µM"
- Compound structure: "C/C(O)=C(\\C#N)C(=O)Nc1cccc(Cl)c1"
  IC50: "> 300 µM"
- Compound structure: "C/C(O)=C(\\C#N)C(=O)Nc1ccc(OC(F)(F)F)cc1"
  IC50: "53.4 µM"
- Compound structure: "C/C(O)=C(\\C#N)C(=O)Nc1cc(Br)ccc1Br"
  IC50: "> 300 µM"
- Compound structure: "C/C(O)=C(\\C#N)C(=O)Nc1ccccc1F"
  IC50: "> 300 µM"
- Compound structure: "C/C(O)=C(\\C#N)C(=O)Nc1ccc(C(F)(F)F)cc1"
  IC50: "199 µM"
- Compound structure: "C/C(O)=C(\\C#N)C(=O)Nc1ccccc1Cl"
  IC50: "> 300 µM"
- Compound structure: "C/C(O)=C(\\C#N)C(=O)Nc1cccc(F)c1"
  IC50: "> 300 µM"
- Compound structure: "C/C(O)=C(\\C#N)C(=O)Nc1ccccc1C(F)(F)F"
  IC50: "> 300 µM"
- Compound structure: "C/C(O)=C(\\C#N)C(=O)Nc1ccc(F)cc1"
  IC50: "> 300 µM"
